target: chimeric BTLA of humanised-BTLA mice (human extracellular region, murine transmembrane and signaling … (human; mouse, UniProt Q7TSA3 184-306, limits assumed); assay: cell-based or functional assay
Sequence (Q7TSA3 other isoform, or with tags, fused parts or gaps mutant limits assumed): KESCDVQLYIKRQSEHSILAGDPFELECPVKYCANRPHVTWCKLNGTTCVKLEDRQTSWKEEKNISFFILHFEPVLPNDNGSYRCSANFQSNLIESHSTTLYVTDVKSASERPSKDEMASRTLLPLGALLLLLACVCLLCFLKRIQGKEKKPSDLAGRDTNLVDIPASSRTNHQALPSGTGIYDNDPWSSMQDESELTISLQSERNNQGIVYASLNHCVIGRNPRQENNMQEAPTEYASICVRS
MEASURED PROPERTY: AntiCD3/CD28 (CD69+ CD4 T cells) repeat 2, % inhibition (%)

- BINDER: "7A1 (antibody, IgG1, V domains shown) VH: QVQLQQSGPELVKPGASVKISCKASGYAFSSSWMNWVKQRPGKGLEWIGRIYPGDGDTNYNGKFKGKATLTADKSSSTAYMQLSSLTSEDSAVYFCARRGYGYLAYWGQGTLVTVSA VL: DIVMTQSHKFMSTSVGDRVSITCKASQDVSTAVAWYQQKPGQSPKLLIYSASYRYTGVPDRFTGSGSGTDFTFTISSVQAEDLAVYYCQQHYSTPWTFGGGTKLEIK"
  U: "%"
  EXPERIMENTAL RESULT: 38
- BINDER: "3A9 (antibody, IgG1, V domains shown) VH: QVQLKQSGAELVRPGASVKLSCKASGYTFTDYYINWVKQRPGQGLEWIARIYPGSGNTYYNEKFKGKATLTAEKSSSTAYMQLSSLTSEDSAVYFCARGYGNSDYWGQGTTLTVSS VL: DILLTQSPAILSVSPGERVSFSCRASQSIGTRIHWYQQRTNGSPRLLIKYASESISGIPSRFSGSGSGTDFTLSINSVESEDIADYYCQQSNSWPYTFGGGTKLEIK"
  U: "%"
  EXPERIMENTAL RESULT: 34
- BINDER: "4B1 (antibody, IgG1, V domains shown) VH: QVQLQQSGAELARPGASVRLSCKASGYTFTSYGLIWLKQRTGQGLEWIGEIYPRSGSTYYNEWFKGKATLTADKSSNTAFMELRSLTSEDSAVYFCARRRGTGDGFDYWGQGTILTVSS VL: DIQMTQTTSSLSASLGDRVTISCSASQGISNYLNWYQQKPDGTVKLLIYYTSSLHSGVPSRFSGSGSGTDYSLTISNLEPEDIATYYCQQYIELPFTFGSGTKLEIK"
  U: "%"
  EXPERIMENTAL RESULT: 41
- BINDER: "21C7 (antibody, IgG1, V domains shown) VH: QIQLQQSGPELVKPGASVKISCKASGYAFSSSWMNWVKKRPGKGLEWIGRIYPGDGDANYNGKFKGKATLTADKSSSTAYMQLSSLTSEDSAVYFCAGEGHYYGSGYRWYLDVWGTGTTVTVSS VL: DIQMTQSPASLSVSVGETVTITCRASENIYSNLAWYQQKQGKSPQLLVYAATNLADGVPSRFSGSGSGTQYSLKINSLQSEDFGSYYCQHFRGAPFTFGSGTKLEIK"
  U: "%"
  EXPERIMENTAL RESULT: 35
- BINDER: "4H4 (antibody, IgG1, V domains shown) VH: QVQLQQSGAELARPGASVKLSCKASGYTFTSYGISWVKQRTGQGLEWIGEIYPRSGNTYYNEKFKGKATLTADKSSSTAYMELRSLTSEDSAVYFCARRRGAGDGFDYWGQGTTLTVSS VL: DIQMTQTTSSLSASLGDRVTISCSASQGISNYLNWYQQKPDGTVKLLIYYTSSLHSGVPSRFSGSGSGTDYSLTISNLEPEDIATYYCQQYSKLPFTFGSGTKLEIK"
  U: "%"
  EXPERIMENTAL RESULT: 52
